assay: Cytotoxicity against human 518A2 cells after 48 hrs by MTT assay; format: functional, cell-based; details: 518A2, 48 h
MEASURED PROPERTY: IC50 (nM)
Field: numeric (nM). Do not append units.

Guide cases for IC50, answers given:
>  <COMPOUND>
COc1cccc2c1C(=O)c1c(O)c3c(c(O)c1C2=O)C[C@@](O)(/C(CO)=N/NC(=O)CCCCCCCC(=O)O[C@@H]1C[C@H](C)CC[C@H]1C(C)C)C[C@@H]3O[C@H]1C[C@H](N)[C@H](O)[C@H](C)O1.Cl

>  <IC50 (nM)>
510

$$$$
>  <COMPOUND>
CCCCCCCC/C=C\CCCCCCCC(=O)N/N=C(\CO)[C@]1(O)Cc2c(O)c3c(c(O)c2[C@@H](O[C@H]2C[C@H](N)[C@H](O)[C@H](C)O2)C1)C(=O)c1c(OC)cccc1C3=O.Cl [DOXORUBICIN OLEYLHYDRAZONE HYDROCHLORIDE]

>  <IC50 (nM)>
390

$$$$

Record request: IC50 value, item COc1cccc2c1C(=O)c1c(O)c3c(c(O)c1C2=O)C[C@@](O)(C(=O)CO)C[C@@H]3O[C@H]1C[C@H](N)[C@H](O)[C@H](C)O1.Cl [DOXORUBICIN HYDROCHLORIDE] 170

Record request: IC50 value, item `COc1cccc2c1C(=O)c1c(O)c3c(c(O)c1C2=O)C[C@@](O)(/C(CO)=N/NC(=O)CCCCCCCCCCC(=O)O[C@@H]1C[C@H](C)CC[C@H]1C(C)C)C[C@@H]3O[C@H]1C[C@H](N)[C@H](O)[C@H](C)O1.Cl` 160
